Reference for the values: the OPERA property sets (Mansouri et al. 2018)

assay-metric: logP
Answers are plain numbers.

Guide cases for logP, answers given:
compound="CCC(C)(Oc1ccc(Cl)cc1)C(=O)O (stereo not drawn)" assay_metric=logP result=2.9
compound=O=C(CNC(=O)c1ccccc1)Oc1cccc(C(F)(F)F)c1 assay_metric=logP result=3.3
compound=Fc1cccc(Cl)c1N=C1NCCN1 assay_metric=logP result=1.45
compound=CCOP(=O)(OCC)Oc1ccc(SC)cc1 assay_metric=logP result=2.79
compound=CN(C)N=Nc1ccc(S(N)(=O)=O)cc1 assay_metric=logP result=1.06
compound=CCCCCC(=O)N[C@@H]1C(=O)N2[C@@H]1SC(C)(C)[C@@H]2C(=O)O assay_metric=logP result=2.37
compound=Cc1ccc(Cl)c(Cl)c1NC1=NCCN1 assay_metric=logP result=2.35
compound=COc1ccc(CCCC(=O)O)cc1 assay_metric=logP result=2.33

Would you mind listing logP for each of the following compounds?
1. COc1cc(OC)c(OC)cc1Cc1cnc(N)nc1N
2. O=C(O)C1c2ccccc2Cc2ccccc21
3. CCSC(=O)Oc1cccc2cccnc12
4. Cc1cc(C)cc(OC2OC(CO)C(O)C(O)C2O)c1 (stereo not drawn)
5. CN(C)c1ccc(N=C2C=CC(=O)C=C2)cc1

[1.17, 2.78, 2.74, 0.26, 2.02]

* * *

I'd appreciate it if you could supply logP values for the items below.
Give bare numbers.

compound=CCS(=O)(=O)c1cc(OC)c(OC)c(OC)c1 assay_metric=logP result=1.05
compound=CCOP(=O)(OCC)Oc1c(Cl)cc(SC)cc1Cl assay_metric=logP result=3.72

Would you mind listing logP for each of the following compounds?
1. CNc1nc(N(C)C)nc(N(C)C)n1
2. CCCCOc1cc(Cc2cnc(N)nc2N)c(C)cc1OC
3. COc1ccc(Cc2cnc(N)nc2N)cc1Br
4. CCCCCCN(SN(C)C(=O)ON=C(C)SC)C(=O)c1ccccc1
5. NC1=NC(=O)C(=Cc2ccc([N+](=O)[O-])o2)S1
6. CCCCCCCCCC[n+]1cc(C)cc(C)c1.[I-]
7. N#Cc1cc(OCC(=O)O)ccc1Cl

1. 1.83
2. 2.78
3. 1.88
4. 4.2
5. 1.09
6. 0.76
7. 1.56

Would you mind listing logP for each of the following compounds?
1. CSC(C)=NOC(=O)N(C)SN(C)C(=O)c1ccccc1
2. O=C1OC(Cc2ccccc2)c2ccccc21 (stereo not drawn)

2.2
3.12

Would you mind listing logP for each of the following compounds?
1. CC(=O)N(CCO)c1c(I)c(C(=O)NCC(O)CO)c(I)c(C(=O)NCC(O)CO)c1I (stereo not drawn)
2. CCCSc1nnc(C(C)C)c(=O)n1N
3. Cc1ccc(N2C(N)=NC(N)=NC2(C)C)cc1
4. CC(=O)Nc1n[nH]c(NC(C)=O)n1

1. -2.47
2. 2.12
3. 0.85
4. -1.02

Would you mind listing logP for each of the following compounds?
1. NC1CC2CC1c1ccc(C(F)(F)F)cc12 (stereo not drawn)
2. CCCCCCCCCC[n+]1ccccc1.[Br-]
3. CCOC(=O)C(C#N)=NNc1ccc([N+](=O)[O-])cc1[N+](=O)[O-]
4. COc1ccc(C(N)=O)cc1N=NN(C)C
5. O=C1CCC(=O)N1c1cccc(F)c1
6. CC(C)N(N=O)C(=O)Nc1ccccc1

1: 2.91; 2: -0.72; 3: 4.14; 4: 0.44; 5: 0.38; 6: 2.5

Would you mind listing logP for each of the following compounds?
1. Cc1[nH]c(=O)n(OCCCl)c(=O)c1Br
2. CNC(=O)Oc1ccc(S(C)(=O)=O)cc1
3. COC(=O)C(C#N)=NNc1cccc(C(F)(F)F)c1
4. O=S(=O)(Nc1ccc(Cl)cc1)C(F)(F)F

1. 0.3
2. 0.34
3. 3.78
4. 3.96

Would you mind listing logP for each of the following compounds?
1. CCCOn1c(=O)[nH]c(C)c(Br)c1=O
2. COc1ccc(Cc2cnc(N)nc2N)cc1C
3. CCC(=O)Cn1ccnc1C=Cc1occc1[N+](=O)[O-]

[0.76, 1.91, 1.27]
